Test system: hαIIb/mβ3 platelets
Conditions: read-out: IC50 for hαIIb/mβ3 platelets; data not shown, n=3
Parameter: IC50

Exam item: // lookup IC50 for NCC(=O)Nc1cncc(-c2nn3c(=O)cc(N4CCNCC4)nc3s2)c1
Marked response: ~10 nM
